# target.entity: Dual specificity mitogen-activated protein kinase kinase 1 (Homo sapiens)
# experimental.details: Inhibition of human Mitogen activated protein kinase kinase 1 (MEK1) at 30 uM
outcome.measure: inhibition (%)
Hi! Could you send only the number? It should be in %, unit omitted.

Record excerpt, results attached:
smiles.data: COc1ncnc2ncn(Cc3ccc(F)cc3)c12
outcome.measure: inhibition
result.value: 3
//
smiles.data: c1ccc(CSc2ncnc3[nH]cnc23)cc1
outcome.measure: inhibition
result.value: 7

Requested read-out inhibition, target or system Dual specificity mitogen-activated protein kinase kinase 1 (Homo sapiens), entry Cn1cnc2c(-c3ccccc3)ncnc21
9

Same read-out for Fc1ccc(Cn2cnc3ncnc(Cl)c32)cc1 ?
4

Would you kindly repeat that for Fc1ccc(Nc2[nH]cnc3ncnc2-3)cc1 ?
34

And Cn1cnc2c(/C=C/c3ccccc3)ncnc21 ?
0

Note, next up: Fc1ccc(Sc2[nH]cnc3nccc2-3)cc1
36

Check Nc1ncnc2ncn(Cc3ccc(F)cc3)c12 too.
8

Also need c1ccc(-[n+]2c[nH]c3ncncc32)cc1 , thanks.
0

====

# target.entity: Protein kinase C alpha type (Homo sapiens) (UniProt P17252)
# experimental.details: Inhibition of human Protein kinase C alpha
# Design: concentration or dose not given beside the values
# condition.info: concentration not given here
outcome.measure: inhibition (%)
Expressed in %, but write only the number.

These solved cases illustrate the format of a correct answer.
smiles.data: Cn1c(-c2ccccc2)nc2c(Sc3ccc(F)cc3)ncnc21
units.of.measure: %
inhibition: 17

smiles.data: Cn1c(-c2ccccc2)nc2c(-c3ccc(F)cc3)ncnc21
units.of.measure: %
inhibition: 17

smiles.data: Fc1ccc(Cn2cnc3c(Sc4ccccc4)ncnc32)cc1
units.of.measure: %
inhibition: 0

Data request, read-out inhibition, for Fc1ccc(Oc2[nH]cnc3ncnc2-3)cc1
3

Next molecule up: c1ccc(Nc2ncnc3[nH]cnc23)cc1
6

What do you get for c1ccc(Sc2ncnc3[nH]cnc23)cc1 ?
3

Repeat with Fc1ccc(C[n+]2c[nH]c3ncncc32)cc1
15

====

# target.entity: Dual specificity mitogen-activated protein kinase kinase 1 (Homo sapiens) (UniProt Q02750)
# Sequence (Q02750 whole entry): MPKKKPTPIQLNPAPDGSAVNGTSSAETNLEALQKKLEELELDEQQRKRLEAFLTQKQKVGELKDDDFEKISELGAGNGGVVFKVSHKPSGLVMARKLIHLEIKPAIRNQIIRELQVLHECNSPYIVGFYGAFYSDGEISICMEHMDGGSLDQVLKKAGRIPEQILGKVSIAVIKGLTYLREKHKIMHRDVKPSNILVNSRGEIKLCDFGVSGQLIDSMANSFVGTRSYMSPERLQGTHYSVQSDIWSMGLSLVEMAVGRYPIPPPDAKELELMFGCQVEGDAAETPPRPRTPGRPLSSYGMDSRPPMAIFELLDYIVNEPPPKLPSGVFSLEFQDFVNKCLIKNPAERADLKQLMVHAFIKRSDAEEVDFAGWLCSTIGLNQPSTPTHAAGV
# experimental.details: Inhibition of human Mitogen activated protein kinase kinase 1 (MEK1) at 30 uM
outcome.measure: inhibition (%)
Write down the numeric answer in % and omit the unit.

smiles.data: Fc1ccc(Sc2ncnc3c2ncn3Cc2ccccc2)cc1
units.of.measure: %
inhibition: 4
//
smiles.data: Fc1ccc(Cn2cnc3c(Sc4ccccc4)ncnc32)cc1
units.of.measure: %
inhibition: 1
//
smiles.data: Fc1ccc(Cn2cnc3c(Sc4ccc(F)cc4)ncnc32)cc1
units.of.measure: %
inhibition: 3

For the next question, use this compound.
Suppose we examine the compound Cn1cnc2c(SCc3ccc(F)cc3)ncnc21 ; what inhibition value has been reported?
7
